System: VEGF
experimental-protocol: Evaluation of VEGF protein secretion level (Human VEGF ELISA) in ARPE-19 cell medium under hypoxic conditions
Type: cell-based
measurement-context: ARPE-19 cells; pretreated 2 hours, 24 hours hypoxic conditions; secreted VEGF in medium supernatant by ELISA; concentration range reducing VEGF by 50% vs untreated control; read-out: IC50 VEGF
Method: ARPE-19 cells (Human retinal pigment epithelial cells, ATCC CRL-2302) were cultured in DMEM/F12 (LM002-08, Welgene) medium containing 10% fetal bovine serum (FBS, 16000-044, Gibco) in an incubator at 37°C with 5% carbon dioxide. When the cells grew sufficiently, they were cultured in experimental culture dishes for protein isolation and medium supernatant acquisition. Cells were detached from the culture dish using TrypLE™ Express (Gibco). […] The cells were counted and seeded into new culture dishes. […]
pIC50: −log10 of the molar value.
quantity: pIC50

[[record]]
compound = "O=C(NCc1cc(F)cc(-c2cnn(-c3ccc(F)cc3)c2)c1)c1ncnc2nc(C34CC(F)(C3)C4)[nH]c12"
observed_result = "5.00 to 6.00"

[[record]]
compound = "COc1ccc(Nc2cc(F)cc(CNC(=O)c3ncnc4nc(C5CCCC5)[nH]c34)c2)cc1"
observed_result = "6.00 to 7.00"

[[record]]
compound = "O=C(NCc1cc(F)cc(-c2cnn(-c3ccc(F)cc3)c2)c1)c1ncnc2nc(C3CCC(F)(F)C3)[nH]c12 (stereo not shown) [Example 80]"
observed_result = "> 7.00"

[[record]]
compound = "O=C(NCc1ccc(-c2cnn(-c3ccc(F)cc3)c2)c(F)c1)c1ncnc2nc(C3CCCC3)[nH]c12"
observed_result = "< 5.00"

